Origin of measurements: patent US6723753B2

- target-or-system: UniProtKB P11597
- Sequence (P11597 18-493): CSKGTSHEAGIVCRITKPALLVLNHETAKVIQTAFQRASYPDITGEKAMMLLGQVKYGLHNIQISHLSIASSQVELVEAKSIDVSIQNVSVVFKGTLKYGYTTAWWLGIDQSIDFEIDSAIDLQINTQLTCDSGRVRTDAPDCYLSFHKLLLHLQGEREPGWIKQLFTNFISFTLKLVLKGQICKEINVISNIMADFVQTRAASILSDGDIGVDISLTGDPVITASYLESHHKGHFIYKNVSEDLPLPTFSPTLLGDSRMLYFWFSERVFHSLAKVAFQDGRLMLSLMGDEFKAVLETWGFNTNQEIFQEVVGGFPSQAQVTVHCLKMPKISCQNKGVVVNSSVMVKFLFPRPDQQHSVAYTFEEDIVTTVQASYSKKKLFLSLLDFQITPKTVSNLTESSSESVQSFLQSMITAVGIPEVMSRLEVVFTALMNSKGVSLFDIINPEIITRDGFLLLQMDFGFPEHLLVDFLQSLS
- protocol-summary: Assay of CETP Inhibition in Human Plasma
- Format: biochemical
- Parameters: Blood was obtained from healthy volunteers, recruited from the personnel of Monsanto Company; from tissue; host or cells: human EDTA plasma pool from healthy volunteers
- conditions-used: Inhibition of CETP activity in human plasma assay; transfer of [3H]CE from HDL to VLDL and LDL; read-out: IC50
Below, each of the molecules is paired with its reported pIC50 value.
Recall that pIC50 is obtained by taking minus log10 of the concentration measured in molar.

Worked set:
                                   molecule  endpoint_result
0  OC(CN(Cc1cccc(OC(F)(F)F)c1)c1cccc(Oc2ccc(F)cc2)c1)C(F)(F)F (stereo not drawn)             4.52
1  OC(CN(Cc1cccc(OC(F)(F)C(F)F)c1)c1cccc(OCc2ccc(F)cc2F)c1)C(F)(F)F (stereo not drawn)             5.00
2  OC(CN(Cc1cccc(OC(F)(F)F)c1)c1ccc2c(c1)Cc1ccccc1-2)C(F)(F)F (stereo not drawn) [Example 201]             3.96
3  CC(Oc1cccc(N(Cc2cccc(OC(F)(F)C(F)F)c2)CC(O)C(F)(F)F)c1)c1ccccc1 (stereo not drawn)             5.36
4  Cc1ccc(COc2cccc(N(Cc3cccc(OC(F)(F)C(F)F)c3)CC(O)C(F)(F)F)c2)cc1 (stereo not drawn)             4.54
5  OC(CN(Cc1cccc(OC(F)(F)C(F)F)c1)c1cccc(Oc2cncc(Cl)c2)c1)C(F)(F)F (stereo not drawn)             4.66
6  OC(CN(Cc1cccc(OC(F)(F)C(F)F)c1)c1cccc(Nc2ccc(F)cc2)c1)C(F)(F)F (stereo not drawn)             4.38
7  O=[N+]([O-])c1c(F)cccc1Oc1cccc(N(Cc2cccc(OC(F)(F)C(F)F)c2)CC(O)C(F)(F)F)c1 (stereo not drawn)             4.62
8  OC(CN(Cc1cccc(OC(F)(F)C(F)F)c1)c1cccc(-c2cc(Cl)cc(Cl)c2)c1)C(F)(F)F (stereo not drawn)             4.47

Okay, next one:
Ask | Name the reported pIC50 value associated with the molecule OC(CN(Cc1ccc(C(F)(F)F)cc1)c1ccc(F)c(C(F)(F)F)c1)C(F)(F)F (stereo not drawn)
Reply | 3.70
